# ASSAYED_TARGET: UniProtKB Q9UDY8
# EXPERIMENT_SUMMARY: MALT1 enzymatic activity inhibition (fluorescence, Ac-LRSR-AMC substrate)
# Type: biochemical
# MEASUREMENT_CONDITIONS: recombinant MALT1 1.5 ng/μl, Ac-LRSR-AMC 1 μM
MEASURED_PROPERTY: EC50

Req: Give its EC50 value. Item: O=C(CCOCCN1CCN(c2ccc3c(c2)CN(C2CCC(=O)NC2=O)C3=O)CC1)NCCOc1ncc(Cl)cc1NC(=O)Nc1cnc2ccnn2c1C1CCOC1 (stereo not drawn)
Resp: 0.5 to 1 µM

###

# ASSAYED_TARGET: MALT1 (Homo sapiens (Human))
# Sequence (Q9UDY8 whole entry): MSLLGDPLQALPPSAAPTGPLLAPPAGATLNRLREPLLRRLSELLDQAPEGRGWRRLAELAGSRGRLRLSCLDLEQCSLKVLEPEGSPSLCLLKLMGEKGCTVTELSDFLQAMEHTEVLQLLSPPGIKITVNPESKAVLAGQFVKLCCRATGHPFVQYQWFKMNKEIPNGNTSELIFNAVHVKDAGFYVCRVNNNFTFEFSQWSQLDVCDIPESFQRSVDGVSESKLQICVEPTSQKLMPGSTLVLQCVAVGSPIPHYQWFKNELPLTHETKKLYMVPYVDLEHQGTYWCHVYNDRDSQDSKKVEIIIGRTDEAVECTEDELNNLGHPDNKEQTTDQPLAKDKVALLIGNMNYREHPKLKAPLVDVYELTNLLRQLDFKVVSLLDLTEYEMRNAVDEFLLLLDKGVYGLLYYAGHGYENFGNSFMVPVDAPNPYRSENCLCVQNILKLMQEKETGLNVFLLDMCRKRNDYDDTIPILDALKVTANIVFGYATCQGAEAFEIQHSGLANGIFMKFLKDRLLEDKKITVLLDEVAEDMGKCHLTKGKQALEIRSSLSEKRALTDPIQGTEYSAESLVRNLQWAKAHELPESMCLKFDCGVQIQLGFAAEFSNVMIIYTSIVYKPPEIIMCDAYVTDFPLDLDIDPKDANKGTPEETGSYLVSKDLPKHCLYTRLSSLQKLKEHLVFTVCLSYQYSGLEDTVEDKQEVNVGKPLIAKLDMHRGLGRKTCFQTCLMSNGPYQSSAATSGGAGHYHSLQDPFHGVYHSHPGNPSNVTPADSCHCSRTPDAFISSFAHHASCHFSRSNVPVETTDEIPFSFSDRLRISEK
# EXPERIMENT_SUMMARY: MALT1 enzymatic activity inhibition (fluorescence, Ac-LRSR-AMC substrate)
# Type: biochemical
# MEASUREMENT_CONDITIONS: recombinant MALT1 1.5 ng/μl, Ac-LRSR-AMC 1 μM
Below, each entry is listed alongside its reported EC50.

Solved entries (count: 4):
[
  {
    "COMPOUND": "CC(C)(C)C(=O)OCN1C(=O)CCC(N2Cc3cc(N4CCN(C(=O)CCCCc5nc(-c6ncc(NC(=O)Nc7cnc8ccnn8c7C7CCCC7)cc6Cl)no5)CC4)ccc3C2=O)C1=O (centres unmarked) [Compound 134]",
    "EC50": "≤ 0.2 µM"
  },
  {
    "COMPOUND": "Cc1cc(NC(=O)Nc2cnc3ccnn3c2C2CCC2)cnc1-c1noc(CCCCC(=O)N2CCN(c3ccc4c(c3)CN(C3CCC(=O)NC3=O)C4=O)CC2)n1 (centres unmarked) [Compound 112]",
    "EC50": "≤ 0.2 µM"
  },
  {
    "COMPOUND": "Cc1cc(NC(=O)Nc2cnc3ccnn3c2C2CCC2)cnc1-c1noc(CCCCCCN2CCN(c3ccc4c(c3)CN(C3CCC(=O)NC3=O)C4=O)CC2)n1 (centres unmarked) [Compound 115]",
    "EC50": "≤ 0.2 µM"
  },
  {
    "COMPOUND": "Cc1cc(NC(=O)Nc2cnc3ccnn3c2C2CCCCC2)cnc1-c1noc(CCCCC(=O)Nc2ccc3c(c2)CN(C2CCC(=O)NC2=O)C3=O)n1 (centres unmarked) [Compound 125]",
    "EC50": "0.5 to 1 µM"
  }
]

Lab note: next compound to report on.
Req: For the compound CC(C)c1c(NC(=O)Nc2ccc(-c3nnc(CCCCCC(=O)N4CCN(c5ccc6c(c5)CN(C5CCC(=O)NC5=O)C6=O)CC4)s3)nc2)cnc2ccnn12 (centres unmarked) [Compound 129] , what EC50 is on record?
Resp: 1 to 5 µM
